- protocol: Phase 1 clinical trial: COMPOUND A plasma pharmacokinetics
- Type: in vivo, human
- condition_notes: human, plasma, po, C1D15; 5 mg QD oral in combination with fulvestrant, N=4; geometric mean (CV %); read-out: AUC24
property: AUC
I'd appreciate it if you wrote the number followed by its unit.

// query Name the reported AUC value associated with the compound COc1ccccc1S(=O)(=O)Nc1noc2cc(Cn3cccn3)cc(OC)c12
// result 50100 ng·h/mL

====

- protocol: Phase 1 clinical trial: COMPOUND A plasma pharmacokinetics
- Type: in vivo, human
- condition_notes: human, plasma, po, C1D1; 5 mg QD oral in combination with fulvestrant, N=4; median (minimum, maximum); read-out: Tmax
property: Tmax (h)
Please state the figure in h; there is no need to write the unit.

// query Name the reported Tmax value associated with the molecule COc1ccccc1S(=O)(=O)Nc1noc2cc(Cn3cccn3)cc(OC)c12
// result 6

====

- protocol: Phase 1 clinical trial: COMPOUND A plasma pharmacokinetics
- Type: in vivo, human
- condition_notes: human, plasma, po, C1D15 (steady state); 5 mg QD oral in combination with fulvestrant, N=4; geometric mean (CV %)
property: Cmax (ng/mL)
Please state the figure in ng/mL; there is no need to write the unit.

// query Name the reported Cmax value associated with the molecule COc1ccccc1S(=O)(=O)Nc1noc2cc(Cn3cccn3)cc(OC)c12
// result 2340

====

- protocol: Phase 1 clinical trial: COMPOUND A plasma pharmacokinetics
- Format: in vivo, human
- condition_notes: human, plasma, po, 15 mg, C1D15; 15 mg QD oral monotherapy, N=6; median (minimum, maximum); read-out: Tmax
property: Tmax (h)
Please state the figure in h; there is no need to write the unit.

// query Name the reported Tmax value associated with the compound COc1ccccc1S(=O)(=O)Nc1noc2cc(Cn3cccn3)cc(OC)c12
// result 3

====

- protocol: Phase 1 clinical trial: COMPOUND A plasma pharmacokinetics
- Type: in vivo, human
- condition_notes: human, plasma, po, 8 mg, C1D1; 8 mg QD oral monotherapy, N=7; median (minimum, maximum); read-out: Tmax
property: Tmax

// query Name the reported Tmax value associated with the molecule COc1ccccc1S(=O)(=O)Nc1noc2cc(Cn3cccn3)cc(OC)c12
// result 3 h

====

- protocol: Phase 1 clinical trial: COMPOUND A plasma pharmacokinetics
- Type: in vivo, human
- condition_notes: human, plasma, po, 15 mg, C1D15 (steady state); 15 mg QD oral monotherapy, N=6; geometric mean (CV %)
property: Cmax (ng/mL)
Please state the figure in ng/mL; there is no need to write the unit.

// query Name the reported Cmax value associated with the compound COc1ccccc1S(=O)(=O)Nc1noc2cc(Cn3cccn3)cc(OC)c12 [COMPOUND A]
// result 6030

====

- protocol: Phase 1 clinical trial: COMPOUND A plasma pharmacokinetics
- Type: in vivo, human
- condition_notes: human, plasma, po, 15 mg, C1D1 (after 1st dose); 15 mg QD oral monotherapy, N=6; geometric mean (CV %)
property: Cmax (ng/mL)
Please state the figure in ng/mL; there is no need to write the unit.

// query Name the reported Cmax value associated with the compound COc1ccccc1S(=O)(=O)Nc1noc2cc(Cn3cccn3)cc(OC)c12
// result 1940

====

- protocol: Phase 1 clinical trial: COMPOUND A plasma pharmacokinetics
- Type: in vivo, human
- condition_notes: human, plasma, po, 15 mg, C1D1; 15 mg QD oral monotherapy, N=6; geometric mean (CV %); read-out: AUC24
property: AUC (ng·h/mL)
Please state the figure in ng·h/mL; there is no need to write the unit.

// query Name the reported AUC value associated with the molecule COc1ccccc1S(=O)(=O)Nc1noc2cc(Cn3cccn3)cc(OC)c12
// result 35700
